Test system: DLD1
Assay: Cell viability determination (MTT), DLD1
Format: cell-based
Settings: Homo sapiens, DLD-1, DLD1, colorectal cancer, 48 hour incubation, read-out: Drug concentrations for 50% cell viability (IC50)
experimental-readout: IC50 (µM)

Record excerpt, results attached:
CC(=O)Oc1c2ccccc2c(OC(C)=O)c2oc(C(C)=O)cc12 [reference compound] = 1.8
CC(=O)c1cc2c(O)c3ccccc3c(OC(=O)CNC(=O)OC(C)(C)C)c2o1 = 1.03

(a) CC(=O)c1cc2c(OC(=O)C(Cl)Cl)c3ccccc3c(OC(=O)C(Cl)Cl)c2o1
(b) CC(=O)Oc1c2ccccc2c(OC(=O)CNC(=O)OC(C)(C)C)c2oc(C(C)=O)cc12
*Q* Identify the entry with the larger IC50. Options: a and b Selection: enter the item's label.
*A* a
(a: 0.9 µM, b: 0.3 µM)
